Reference source: paper PMC8224453

Experiment: In vivo pharmacokinetics after intratracheal instillation
Set-up: species or system mouse
Settings: male, CD1, mouse, BALF, inhaled or intranasal; mice, intratracheal, Figure 3B; read-out: BALF: AUC0-t
Catalogue of AUC(0-t) values
RECORDED_METRIC: AUC(0-t) (ng·h/mL)

> print(dat)
                      smiles.representation  recorded.metric  result.number
1  FC(F)(F)c1cc(NCc2cn(-c3ccc(Oc4ccccc4)cc3)nn2)ccn1         AUC(0-t)           4840
2  NC[C@H]1O[C@H](O[C@H]2[C@H](O)[C@@H](O[C@H]3O[C@H](CO)[C@@H](O)[C@H](N)[C@H]3O)[C@H](N)C[C@@H]2N)[C@H](N)C[C@@H]1O         AUC(0-t)            268
